# Target Or System: Aurora kinase C (Homo sapiens) (UniProt Q9UQB9)
# Sequence (Q9UQB9 whole entry, the tested form may be a part): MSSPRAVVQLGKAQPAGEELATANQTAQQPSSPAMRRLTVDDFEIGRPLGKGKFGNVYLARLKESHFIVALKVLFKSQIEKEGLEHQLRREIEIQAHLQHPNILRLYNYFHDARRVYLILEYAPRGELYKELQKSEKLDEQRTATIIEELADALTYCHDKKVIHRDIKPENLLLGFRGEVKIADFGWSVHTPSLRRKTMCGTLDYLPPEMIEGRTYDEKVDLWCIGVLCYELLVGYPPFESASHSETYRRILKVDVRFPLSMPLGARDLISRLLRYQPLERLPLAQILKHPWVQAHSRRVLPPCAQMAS
# Test Details: Inhibition of human N-terminal GST-tagged Aurora B (M1 to S27 residues) expressed in sf9 cells at 1 uM using CDC25C-derived peptide as substrate by filter binding assay
Active and inactive are the calls of the source. The calls are words filed in the database; no cut-off is given here.
Your answer must be one of the following: active, inactive

Field: example entries. Status: answers known.
In this assay, the call recorded for `CN1CCN(CCO/N=C2/C(=C3/C(=O)Nc4ccccc43)Nc3ccccc32)CC1` was what? inactive

Please indicate how the test categorized `O=C1Nc2cc(Br)ccc2/C1=C1/Nc2ccccc2/C1=N\O` . active

What was the test verdict on `Cc1ccc2c(c1)NC(=O)/C2=C1\Nc2ccccc2\C1=N/O` ? active

Next:
Write down the call the test reported for this compound. Item: O=C1Nc2ccccc2/C1=C1/Nc2ccccc2/C1=N\OCC(O)CO (centres undefined) active
